tested on: Human immunodeficiency virus 1; assay: Antiviral activity against HIV1 harboring reverse transcriptase Y181C mutant infected in human MT4 cells assessed as inhibition of virus-induced cell death measured after 5 days of infection by MTT method; format: functional, organism-based; conditions: Human immunodeficiency virus 1, MT4, 120 h
Binary label based on EC50 with cut-off 500 nM: below gives rule met, not below gives rule not met.

[[record]]
structure_string = "Cc1cc(C)cc(S(=O)(=O)c2c(C(=O)N[C@@H](C)c3ccccc3)[nH]c3ccc(Cl)cc23)c1"
answer_label = "rule not met"

[[record]]
structure_string = "Cc1cc(C)cc(S(=O)(=O)c2c(C(=O)NCc3ccc(Cl)cc3)[nH]c3ccc(Cl)cc23)c1"
answer_label = "rule met"

[[record]]
structure_string = "Cc1cc(C)cc(S(=O)(=O)c2c(C(=O)NCCc3cccc(Cl)c3)[nH]c3ccc(Cl)cc23)c1"
answer_label = "rule not met"

[[record]]
structure_string = "Cc1cc(C)cc(CNC(=O)c2[nH]c3ccc(Cl)cc3c2S(=O)(=O)c2cc(C)cc(C)c2)c1"
answer_label = "rule not met"

[[record]]
structure_string = "Cc1cn([C@H]2C[C@H](N=[N+]=[N-])[C@@H](CO)O2)c(=O)[nH]c1=O"
answer_label = "rule met"

[[record]]
structure_string = "Cc1cc(C)cc(S(=O)(=O)c2c(C(=O)NCCc3ccccc3Cl)[nH]c3ccc(Cl)cc23)c1"
answer_label = "rule met"

[[record]]
structure_string = "Cc1cc(C)cc(S(=O)(=O)c2c(C(=O)NCc3ccc([N+](=O)[O-])cc3)[nH]c3ccc(Cl)cc23)c1"
answer_label = "rule met"

[[record]]
structure_string = "Cc1cc(C)cc(S(=O)(=O)c2c(C(=O)NCCc3ccc(Cl)cc3)[nH]c3ccc(Cl)cc23)c1"
answer_label = "rule not met"

